Answer each item with its documented inhibition at 1.5 h, 10 µM.
# System under test: HDAC1 (histone deacetylase 1) (Homo sapiens)
# Sequence (Q13547 whole entry): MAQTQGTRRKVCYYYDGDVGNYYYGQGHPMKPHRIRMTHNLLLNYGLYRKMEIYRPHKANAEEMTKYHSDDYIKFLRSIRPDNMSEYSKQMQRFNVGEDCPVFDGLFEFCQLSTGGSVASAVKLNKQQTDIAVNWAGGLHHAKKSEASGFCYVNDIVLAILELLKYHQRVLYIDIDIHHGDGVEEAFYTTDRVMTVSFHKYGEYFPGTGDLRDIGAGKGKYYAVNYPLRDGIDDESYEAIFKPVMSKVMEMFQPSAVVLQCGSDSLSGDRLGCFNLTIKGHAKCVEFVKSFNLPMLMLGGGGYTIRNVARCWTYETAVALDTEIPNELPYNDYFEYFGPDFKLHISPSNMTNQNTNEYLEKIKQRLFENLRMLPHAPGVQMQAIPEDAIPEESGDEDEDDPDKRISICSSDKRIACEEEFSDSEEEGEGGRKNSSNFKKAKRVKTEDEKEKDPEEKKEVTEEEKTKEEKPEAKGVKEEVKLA
# Assay: Inhibition of recombinant human HDAC1 at 10 uM using ZMAL as substrate incubated for 90 mins by fluorescence based micro plate assay relative to control
# Applied conditions: recombinant human HDAC1, probe ZMAL

Please report the measured inhibition at 1.5 h, 10 µM for O=C(NO)c1ccc(Cl)c(NC(=O)c2ccc(-c3ccccc3)cc2Cl)c1
18%

Others:
Please report the measured inhibition at 1.5 h, 10 µM for COc1ccc(C(=O)NO)cc1NC(=O)c1ccc(-c2ccccc2)cc1Cl
16%

* * *

# System under test: Histone deacetylase 8 (Homo sapiens)
# Assay: Inhibition of human recombinant HDAC8 at 1 uM using H2N-Arg-His-Lys(Ac)-Lys(Ac)-AMC as substrate after 90 mins by fluorescence based micro plate assay
Classification field: enter 1.0 for inhibition values not below 60%, 0.0 for values below it.

These solved cases illustrate the format of a correct answer.
Is the recorded value of inhibition equal to or greater than 60% for this compound? COc1ccc(C(=O)NO)cc1NC(=O)c1ccc(-c2ccc(F)cc2)cc1Cl
0.0

Is the recorded value of inhibition equal to or greater than 60% for this compound? Cc1ccc(C(=O)NO)cc1NC(=O)c1cccc(OCc2c(Cl)cccc2Cl)c1
0.0

Is the recorded value of inhibition equal to or greater than 60% for this compound? CCCOc1ccc(C(=O)Nc2cc(C(=O)NO)ccc2OC)cc1
1.0

Is the recorded value of inhibition equal to or greater than 60% for this compound? COc1ccc(C(=O)Nc2cc(C(=O)NO)ccc2OC)c(OC)c1
1.0

Others:
Is the recorded value of inhibition equal to or greater than 60% for this compound? O=C(NO)c1ccc(Cl)c(NC(=O)c2ccc(-c3ccc(F)cc3)cc2Cl)c1
0.0

Is the recorded value of inhibition equal to or greater than 60% for this compound? COc1ccc(C(=O)NO)cc1C(=O)Nc1ccc(Cl)cc1Cl
0.0

Is the recorded value of inhibition equal to or greater than 60% for this compound? COc1ccc(C(C)=O)cc1NC(=O)c1cc(C(=O)NO)ccc1OC
1.0

Is the recorded value of inhibition equal to or greater than 60% for this compound? COc1ccc(C(=O)NO)cc1NC(=O)c1nc2ccccc2[nH]1
0.0

* * *

# System under test: Histone deacetylase 1 (Homo sapiens, UniProt Q13547)
# Assay: Inhibition of recombinant human HDAC1 using ZMAL as substrate incubated for 90 mins by fluorescence based micro plate assay
Observable: IC50 (µM)
Answers are plain numbers, in µM.

Please report the measured IC50 for CSc1ccc(C(=O)NO)cc1NC(=O)c1ccc(-c2ccccc2)cc1
3.88

Look up IC50 for the entries below, preserving their order.
1. CCOc1ccc(C(C)=O)cc1NC(=O)c1cccc(C(=O)NO)c1
2. COc1ccc(C(=O)NO)cc1NC(=O)c1cccc2c1oc1ccccc12
3. CCOc1ccc(C(C)=O)cc1NC(=O)c1cc(C(=O)NO)ccc1Cl
4. COc1ccc(C(C)=O)cc1NC(=O)c1cc(C(=O)NO)ccc1OC

1. 7.7
2. 18.5
3. 18.1
4. 0.36

Please report the measured IC50 for CCCOc1ccc(C(C)=O)cc1C(=O)Nc1cc(C(=O)NO)ccc1C
0.36

* * *

Answer each item with its documented IC50.
# System under test: Histone deacetylase 8 (Homo sapiens, UniProt Q9BY41)
# Sequence (Q9BY41 whole entry): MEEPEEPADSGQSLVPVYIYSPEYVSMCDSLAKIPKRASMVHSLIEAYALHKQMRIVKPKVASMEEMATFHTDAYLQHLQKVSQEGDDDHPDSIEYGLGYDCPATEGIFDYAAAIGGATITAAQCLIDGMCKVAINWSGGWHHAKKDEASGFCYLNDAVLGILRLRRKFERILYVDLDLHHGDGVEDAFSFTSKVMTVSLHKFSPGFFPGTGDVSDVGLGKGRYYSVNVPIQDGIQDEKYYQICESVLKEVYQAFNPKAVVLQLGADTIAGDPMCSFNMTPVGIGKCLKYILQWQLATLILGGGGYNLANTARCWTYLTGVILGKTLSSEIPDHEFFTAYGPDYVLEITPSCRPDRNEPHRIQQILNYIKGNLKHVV
# Assay: Inhibition of human recombinant HDAC8 using H2N-Arg-His-Lys(Ac)-Lys(Ac)-AMC as substrate after 90 mins by fluorescence based micro plate assay
Numbers only, in nM.

These recorded examples may help you get a feel for the data.
Please report the measured IC50 for CCOc1ccc(C(=O)NO)cc1NC(=O)c1ccc(Cl)cc1Cl
230

Please report the measured IC50 for COc1ccc(C(=O)NO)cc1NC(=O)c1cccc2cccnc12
180

Please report the measured IC50 for CSc1ccc(C(=O)NO)cc1NC(=O)c1ccc(-c2ccccc2)cc1
220

Please report the measured IC50 for COc1ccc(NC(=O)c2cc(C(=O)NO)ccc2OC)cc1
270

Please report the measured IC50 for COc1ccc(C(C)=O)cc1NC(=O)c1cc(C(=O)NO)ccc1C
90

Look up IC50 for the entries below, preserving their order.
1. COc1ccc(C(=O)NO)cc1C(=O)Nc1ccc2sccc2c1
2. CCOc1ccc(C(C)=O)cc1NC(=O)c1cc(C(=O)NO)ccc1C
3. COc1ccc(C(=O)NO)cc1NC(=O)c1ccc(-c2ccccc2)cc1
4. COc1ccc(C(=O)NO)cc1NCc1cccc2c1oc1ccccc12

1: 100; 2: 70; 3: 130; 4: 860

Look up IC50 for the entries below, preserving their order.
1. CCCOc1ccc(C(C)=O)cc1C(=O)Nc1cc(C(=O)NO)ccc1C
2. CCOc1ccc(C(C)=O)cc1NC(=O)c1cccc(C(=O)NO)c1
3. O=C(NO)c1ccc(Cl)c(NC(=O)c2ccc(-c3ccccc3)cc2Cl)c1
4. COc1ccc(C(=O)NO)cc1C(=O)Nc1cccc(Cl)c1

1: 140; 2: 590; 3: 780; 4: 280

Look up IC50 for the entries below, preserving their order.
1. COc1ccc(C(=O)NO)cc1NC(=O)c1cccc2c1/C(=N/O)c1ccccc1-2
2. O=C(NO)c1ccc(Cl)c(NC(=O)c2ccc(-c3ccccc3)cc2)c1
3. COc1ccc(C(C)=O)cc1NC(=O)c1cc(C(=O)NO)ccc1Cl
4. CCOc1ccc(C(C)=O)cc1NC(=O)c1cc(C(=O)NO)ccc1Cl

[150, 450, 90, 220]

Look up IC50 for the entries below, preserving their order.
1. COc1ccc(C(=O)NO)cc1NC(=O)c1ccc2[nH]c3c(c2c1)CN(C)CC3.Cl
2. COc1ccc(C(=O)NO)cc1NC(=O)c1cccc2c1oc1ccccc12
3. COc1ccc(C(=O)NO)cc1NC(=O)c1ccc(-c2ccccc2)cc1Cl

1. 290
2. 320
3. 1100
